Reference source: patent US20220340564A1

test system: Mycobacterium tuberculosis strain EH4.0 expressing green-fluorescent protein (GFP); experiment: microbe, parasite or virus in culture; type: cell-based; details: 168 h, read-out: pIC50 (converted)
Reported IC50 maps to class as: b0 (below 6 nM), b1 (6 nM to below 20 nM), b2 (20 nM or more)

## Input Lab note: sort CCc1nc2ccc(Cl)cn2c1C(=O)NCc1ccc(N2CCN(S(=O)(=O)C(F)(F)F)C(OC)=N2)cc1 [Compound 6] into the matching IC50 band.
## Output b1

## Input Place this compound in its band: CCc1nc2cc(Cl)c(OC)cn2c1C(=O)NCc1ccc(N2CCN(S(=O)(=O)C(F)(F)F)C=N2)cc1 [Compound 67]
## Output b2

## Input Pick a category. Item: CCc1nc2cccc(Cl)n2c1C(=O)NCc1ccc(N2CCN(S(=O)(=O)C(F)(F)F)C(OC)=N2)cc1 [Compound 70]
## Output b2

## Input Any idea which band CCc1nc2c(Br)cc(C)cn2c1C(=O)NCc1ccc(N2CCN(S(=O)(=O)C(F)(F)F)C=N2)c(F)c1 [Compound 166] is in?
## Output b2

## Input Sort into band: CCc1nc2cc(F)c(Cl)cn2c1C(=O)NCc1ccc(N2CCNC=N2)c(F)c1 [Compound 202]
## Output b2

## Input Tag the class for CCc1nc2nc3c(cn2c1C(=O)NCc1ccc(N2CCN(S(=O)(=O)C(F)(F)F)C(OC)=N2)c(F)c1)CCC3 [Compound 158]
## Output b0

## Input Bin this entry: CCc1nc2c(Cl)cc(Cl)cn2c1C(=O)NCc1ccc(N2CCN(S(=O)(=O)C(F)(F)F)C=N2)c(F)c1 [Compound 87]
## Output b2

## Input Into which category would you place CCc1nc2ccc(Cl)cn2c1C(=O)NCc1ccc(N2CCN(C)C=N2)cc1 [Compound 15] ?
## Output b2

## Input Bin? CCc1nc2ccc(C)cn2c1C(=O)NCc1ccc(N2CCN(S(=O)(=O)C(F)(F)F)C(C)=N2)cc1 [Compound 215]
## Output b0

## Input Hi there! Could you help me figure out the category for CCc1nc2nc3c(cn2c1C(=O)NCc1ccc(N2CCN(S(=O)(=O)C(F)(F)F)C=N2)c(F)c1)CCCC3 [Compound 119] please?
## Output b1

## Input Note: place this compound into its band. Item: CCc1nc2cc(OC)c(Cl)cn2c1C(=O)NCc1ccc(N2CCN(S(=O)(=O)C(F)(F)F)C(OC)=N2)cc1 [Compound 68]
## Output b2

## Input Class for O=C(NCc1ccc(N2CCNC=N2)c(F)c1)c1c(C(F)(F)F)nc2ccccn12 [Compound 192] ?
## Output b2

## Input Which IC50 category applies to COC1=NN(c2ccc(CNC(=O)c3c(C(F)(F)F)nc4n3CCCC4)cc2F)CCN1S(=O)(=O)C(F)(F)F [Compound 112] here?
## Output b1

## Input Using the reported IC50, which band applies to CCc1nc2nc(NC)c(Cl)cn2c1C(=O)NCc1ccc(N2CCN(S(=O)(=O)C(F)(F)F)C=N2)c(F)c1 [Compound 83] ?
## Output b2

## Input Hello team, could you let me know which band the following compound falls into: COC1=NN(c2ccc(CNC(=O)c3c(C(F)(F)F)nc4ccccn34)cc2F)CCN1S(=O)(=O)C(F)(F)F [Compound 79]
## Output b0

## Input Category of CCc1nc2ccc(OC)cn2c1C(=O)NCc1ccc(N2CCN(S(=O)(=O)C(F)(F)F)C(OC)=N2)c(F)c1 [Compound 48] , please.
## Output b0

## Input Each compound maps to one class by IC50. Which class for CCc1nc2nc(N)c(F)cn2c1C(=O)NCc1ccc(N2CCN(S(=O)(=O)C(F)(F)F)C=N2)c(F)c1 [Compound 170] ?
## Output b2

## Input Lab log: CCC1=NN(c2ccc(CNC(=O)c3c(CC)nc4ccc(Cl)cn34)cc2)CCN1S(=O)(=O)C(F)(F)F [Compound 2] — assign IC50 category
## Output b1

## Input Please let me know in which category the item CCc1nc2ncc(F)cn2c1C(=O)NCc1ccc(N2CCN(S(=O)(=O)C(F)(F)F)C=N2)c(F)c1 [Compound 130] belongs.
## Output b1

## Input Hello team, could you let me know which band the following compound falls into: CCc1nc2cc3c(cn2c1C(=O)NCc1ccc(N2CCN(S(=O)(=O)C(F)(F)F)C=N2)c(F)c1)OCO3 [Compound 134]
## Output b1

## Input Assign a bin to CCc1nc2ccc(Cl)cn2c1C(=O)NCc1ccc(N2CCN(S(=O)(=O)C(F)(F)F)C(OC)=N2)c(F)c1 [Compound 37]
## Output b0

## Input Returns: class label. Input: CCc1nc2nc3c(cn2c1C(=O)NCc1ccc(N2CCN(S(=O)(=O)C(F)(F)F)C=N2)c(F)c1)COCC3 [Compound 90]
## Output b2

## Input Category of CCc1nc2ncc(C)cn2c1C(=O)NCc1ccc(N2CCN(S(=O)(=O)C(F)(F)F)C=N2)c(F)c1 [Compound 161] :
## Output b0

## Input Which category fits this record: CCc1nc2ccc(Cl)cn2c1C(=O)NCc1ccc(N2CCN(S(=O)(=O)C(F)(F)F)C=N2)c(F)c1 [Compound 9]
## Output b0

## Input Band for CCc1nc2ncc(C)cn2c1C(=O)NCc1ccc(N2CCN(S(=O)(=O)C(F)(F)F)C(OC)=N2)cc1 [Compound 200] ?
## Output b0

## Input Tag the class for O=C(NCc1ccc(N2CCN(S(=O)(=O)C(F)(F)F)C=N2)c(F)c1)c1c(C(F)(F)F)nc2n1CCCC2 [Compound 123]
## Output b1

## Input Determine which band this compound sits in: CCc1nc2nc(C)c(Cl)cn2c1C(=O)NCc1ccc(N2CCN(S(=O)(=O)C(F)(F)F)C=N2)c(F)c1 [Compound 155]
## Output b0

## Input Could you place CCc1nc2ccc(Cl)cn2c1C(=O)NCc1ccc(N2CCN(C(C)=O)C=N2)cc1 [Compound 18] in its proper category? Many thanks.
## Output b1
